Source listed as ChEMBL document CHEMBL4610084.

Entries annotated with measured MIC
# System: Enterococcus faecalis
# protocol: Antibacterial activity against Enterococcus faecalis MB76 after 24 hrs by microdilution assay
# Format: functional
# condition: MB76, 24 h

compound | MIC (µM)
C=C[C@@](C)(O)CC[C@H]1C(=C)CC[C@H]2C(C)(C)CCC[C@]12C | 110
C=C[C@@](C)(O)CC[C@@H]1[C@@]2(C)CCCC(C)(C)[C@@H]2CC[C@@]1(C)O | 207
COC(=O)[C@]1(C)CCC[C@@]2(C)[C@H]1CC[C@@](C)(O)[C@@H]2CC/C(C)=C/C[C@H]1OC(=O)C=C1C | 148
COC1O[C@H]2C[C@@](C)(O)[C@H](CC/C(C)=C/[C@H](O)[C@H]3OC(=O)C=C3C)[C@@]3(C)CCC[C@]1(C)[C@H]23 (stereo partly specified) | 143
COc1ccc(-c2cc(=O)c3c(O)c(OC)c(OC)cc3o2)cc1O | 186
COC1O[C@H]2C[C@@](C)(O)[C@H](CC/C(C)=C/CC3OC(=O)C=C3C)[C@@]3(C)CCC[C@]1(C)[C@H]23 (stereo partly specified) | 296

###

# Tested on: Staphylococcus hominis
# protocol: Antibacterial activity against Methicillin-resistant Staphylococcus hominis MB124 after 24 hrs by microdilution assay
# Format: functional
# condition: MB124, 24 h
Hi! Just check whether MIC is below 300 µM. Below gives Satisfied, equal or above gives Not satisfied.

compound | target_desc | cat
CC1=CC(=O)OC1C/C=C(\C)CC[C@@H]1[C@@]2(C)CCC[C@@](C)(CO)[C@@H]2CC[C@@]1(C)O (stereo partly drawn) | Staphylococcus hominis | Not satisfied
COC(=O)[C@]1(C)CCC[C@@]2(C)[C@H]1CC[C@@](C)(O)[C@@H]2CC/C(C)=C/[C@H](O)[C@H]1OC(=O)C=C1C | Staphylococcus hominis | Satisfied
COc1ccc(-c2cc(=O)c3c(OC)c(OC)c(OC)cc3o2)cc1 | Staphylococcus hominis | Not satisfied
COC(=O)[C@]1(C)CCC[C@@]2(C)[C@H]1[C@@H](O)C[C@@](C)(O)[C@@H]2CC/C(C)=C/C[C@H]1OC(=O)C=C1C | Staphylococcus hominis | Satisfied
COC1O[C@H]2C[C@@](C)(O)[C@H](CC/C(C)=C/CC3OC(=O)C=C3C)[C@@]3(C)CCC[C@]1(C)[C@H]23 (stereo partly drawn) | Staphylococcus hominis | Satisfied
COC1O[C@H]2C[C@@](C)(O)[C@H](CC/C(C)=C/[C@H](O)[C@H]3OC(=O)C=C3C)[C@@]3(C)CCC[C@]1(C)[C@H]23 (stereo partly drawn) | Staphylococcus hominis | Satisfied
CC1(C)CCC[C@]2(C)[C@@H](CC[C@](C)(O)[C@H]3CO3)[C@](C)(O)CC[C@@H]12 | Staphylococcus hominis | Not satisfied
COc1ccc(-c2cc(=O)c3c(OC)c(OC)c(OC)cc3o2)cc1OC | Staphylococcus hominis | Not satisfied

###

# System: Enterococcus faecalis
# protocol: Antibacterial activity against Vancomycin resistant Enterococcus faecalis MB51 after 24 hrs by microdilution assay
# Type: functional
# condition: MB51, 24 h
quantity_name: MIC (µM)

compound | readout_unit | data_value
COC1O[C@H]2C[C@@](C)(O)[C@H](CC/C(C)=C/CC3OC(=O)C=C3C)[C@@]3(C)CCC[C@]1(C)[C@H]23 (stereo not given in full) | µM | 296
COC(=O)[C@]1(C)CCC[C@@]2(C)[C@H]1[C@@H](O)C[C@@](C)(O)[C@@H]2CC/C(C)=C/[C@H](O)[C@H]1OC(=O)C=C1C | µM | 138
COC1O[C@H]2C[C@@](C)(O)[C@H](CC/C(C)=C/[C@H](O)[C@H]3OC(=O)C=C3C)[C@@]3(C)CCC[C@]1(C)[C@H]23 (stereo not given in full) | µM | 143
CN[C@H](CC(C)C)C(=O)N[C@H]1C(=O)N[C@@H](CC(N)=O)C(=O)N[C@H]2C(=O)N[C@H]3C(=O)N[C@H](C(=O)N[C@H](C(=O)O)c4cc(O)cc(O)c4-c4cc3ccc4O)[C@H](O)c3ccc(c(Cl)c3)Oc3cc2cc(c3O[C@@H]2O[C@H](CO)[C@@H](O)[C@H](O)[C@H]2O[C@H]2C[C@](C)(N)[C@H](O)[C@H](C)O2)Oc2ccc(cc2Cl)[C@H]1O | µM | 44.2
